// reported inhibition for each item listed
biological target: 5'-AMP-activated protein kinase catalytic subunit alpha-2 (Homo sapiens); settings: at 0.1 µM;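 note: mean inhibition measured on the AMPK complex of alpha2, beta1 and gamma1 subunits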
Description: GSK_PKIS: AMPKA2 (A2B1G1) mean inhibition at 0.1 uM [Nanosyn]
Give just the number in %; leave the unit off.

# annotated cases, reported inhibition shown
entry_smiles | inhibition [%]
NS(=O)(=O)c1ccc(Nc2ncc(-c3ccccc3)o2)cc1 | 1.03
O=C(Nc1n[nH]c2cc(-c3ccc(F)cc3)ccc12)C1CC1 | 3.71
CCCN(CCS(C)(=O)=O)Cc1ccc(-c2ccc3ncnc(Nc4ccc(OCc5cccc(F)c5)c(Cl)c4)c3c2)o1 | 2.47
COc1ccc2[nH]c3c4[nH]c5ccc(OC)cc5c4c4c(c3c2c1)C(=O)NC4=O | 17.9
COc1cccc(-n2ncc3c(N/N=C/c4ccc(F)cc4)ncnc32)c1 | -0.09

Problem: Assign inhibition to the following record: COc1ccc(-c2cc3c(N)ncnc3o2)cc1
Result: 0.21

Problem: Assign inhibition to the following record: CN1CCC(n2cnc(-c3ccc(F)cc3)c2-c2ccnc(Nc3ccccc3)n2)CC1
Result: -0.33
